biological target: Nitric oxide synthase, inducible (Mus musculus) (UniProt P29477); assay: Inhibition of iNOS in mouse RAW264.7 cells assessed as anti-inflammatory activity by measuring inhibition of LPS-induced nitric oxide production at 100 uM after 24 hrs; type: cell-based
Sequence (P29477 whole entry): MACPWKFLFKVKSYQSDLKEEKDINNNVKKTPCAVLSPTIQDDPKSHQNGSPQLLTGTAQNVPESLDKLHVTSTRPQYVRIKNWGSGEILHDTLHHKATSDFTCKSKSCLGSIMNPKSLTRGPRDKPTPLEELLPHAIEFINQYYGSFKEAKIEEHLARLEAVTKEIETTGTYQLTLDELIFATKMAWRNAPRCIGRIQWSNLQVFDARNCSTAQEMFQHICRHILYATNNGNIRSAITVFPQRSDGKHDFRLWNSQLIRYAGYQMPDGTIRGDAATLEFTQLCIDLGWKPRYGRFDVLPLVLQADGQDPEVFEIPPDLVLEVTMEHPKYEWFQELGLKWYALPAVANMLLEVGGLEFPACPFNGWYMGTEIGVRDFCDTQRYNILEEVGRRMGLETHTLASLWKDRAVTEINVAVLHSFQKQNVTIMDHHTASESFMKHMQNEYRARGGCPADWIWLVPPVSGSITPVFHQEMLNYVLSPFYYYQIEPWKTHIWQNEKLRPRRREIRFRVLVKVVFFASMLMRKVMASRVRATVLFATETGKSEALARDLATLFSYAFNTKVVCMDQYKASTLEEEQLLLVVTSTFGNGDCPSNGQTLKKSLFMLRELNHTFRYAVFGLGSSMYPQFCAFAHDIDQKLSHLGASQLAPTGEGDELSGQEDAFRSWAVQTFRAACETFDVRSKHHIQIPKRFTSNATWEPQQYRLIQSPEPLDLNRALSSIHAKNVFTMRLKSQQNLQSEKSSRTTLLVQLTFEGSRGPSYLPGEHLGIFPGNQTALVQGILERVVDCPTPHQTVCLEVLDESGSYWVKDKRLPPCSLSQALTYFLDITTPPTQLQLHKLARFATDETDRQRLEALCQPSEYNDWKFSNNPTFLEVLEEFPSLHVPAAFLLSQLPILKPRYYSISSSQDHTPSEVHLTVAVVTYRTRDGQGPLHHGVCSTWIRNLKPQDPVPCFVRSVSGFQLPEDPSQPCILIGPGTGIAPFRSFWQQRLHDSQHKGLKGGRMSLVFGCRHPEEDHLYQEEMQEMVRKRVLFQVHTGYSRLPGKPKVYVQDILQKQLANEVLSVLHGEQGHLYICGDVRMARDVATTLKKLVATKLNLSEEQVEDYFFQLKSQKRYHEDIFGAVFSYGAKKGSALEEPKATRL
Field: Emax. Provide a value for each of the compounds that follow.
Just the number in %, nothing appended.

Observed Emax on Nitric oxide synthase, inducible (Mus musculus) (UniProt P29477) for "COc1cc(C(=O)O[C@@H](c2cc(OC)c(OC)c(OC)c2)[C@H](C)C(C)=O)cc(OC)c1OC" , please.
85.5

Another compound: COc1cc([C@@H]2O[C@@H](c3cc(OC)c4c(c3)OCO4)[C@H](C)[C@H]2C)cc2c1OCO2 (relative stereo)
65.6

Next compound: CC(C)CNC(=O)[C@@H]1C=C[C@@H]2C[C@H]3[C@H](Cc4ccc5c(c4)OCO5)[C@H]4C=C[C@@H]1[C@@H]2[C@H]43 (relative stereo) [ENDIANDRAMIDE A]
97.3

Consider next the compound "N=C(NCCC[C@H](N)C(=O)O)N[N+](=O)[O-]" in the same way.
43.7

Do the same for COc1cc([C@@H]2O[C@@H](c3cc(OC)c4c(c3)OCO4)[C@H](C)[C@H]2C)cc(OC)c1OC (relative stereo) please
63.4

What about this compound? CC(C)CNC(=O)[C@H]1[C@H]2C=C[C@@H]3[C@@H]1C[C@H]1[C@H](CCCc4ccc5c(c4)OCO5)[C@@H]2[C@@H]31 (relative stereo)
72.1

Same read-out for O=C(O)[C@@H]1C=C[C@@H]2C[C@H]3[C@H](CCCc4ccc5c(c4)OCO5)[C@H]4C=C[C@@H]1[C@@H]2[C@H]43 (relative stereo) ?
96.9

Next compound: O=C(O)[C@H]1[C@H]2C=C[C@@H]3[C@@H]1C[C@H]1[C@H](CCCc4ccc5c(c4)OCO5)[C@@H]2[C@@H]31 (relative stereo)
77.9

Same thing, different compound: COc1cc([C@@H]2O[C@@H](c3cc(OC)c4c(c3)OCO4)[C@H](C)[C@H]2C)cc(O)c1OC (relative stereo)
86.6

Next record, please: O=C(O)[C@@H]1C=C[C@@H]2C[C@H]3[C@H](Cc4ccc5c(c4)OCO5)[C@H]4C=C[C@@H]1[C@@H]2[C@H]43 (relative stereo)
96.1

Subsequent entry: O=C(O)/C=C/[C@H]1[C@@H]2C=C[C@@H]3[C@H]1C[C@H]1[C@H](CCCCCc4ccc5c(c4)OCO5)[C@H]2[C@@H]31 (relative stereo)
91.4
